Ref: the supplement of paper PMC7877785

# experimentalDetails: self-splicing fitness, log relative to wild type (ln ratio); higher = more splicing; Tetrahymena group I intron in knt gene, E. coli kanamycin selection, DiMSum; sequences stand for … in CUCUCU…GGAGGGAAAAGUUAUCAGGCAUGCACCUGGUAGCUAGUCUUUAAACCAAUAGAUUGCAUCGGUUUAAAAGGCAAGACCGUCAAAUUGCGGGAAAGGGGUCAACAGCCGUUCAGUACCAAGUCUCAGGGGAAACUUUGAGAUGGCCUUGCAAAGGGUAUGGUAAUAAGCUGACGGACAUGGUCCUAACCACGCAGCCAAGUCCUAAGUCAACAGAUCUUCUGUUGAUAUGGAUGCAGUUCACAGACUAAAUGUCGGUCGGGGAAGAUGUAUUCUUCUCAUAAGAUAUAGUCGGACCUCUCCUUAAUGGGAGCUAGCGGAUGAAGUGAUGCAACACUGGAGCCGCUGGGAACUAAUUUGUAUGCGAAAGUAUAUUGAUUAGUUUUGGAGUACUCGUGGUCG;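 also: selection with 25 µg/mL kanamycin versus none on LB agar overnight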
# testParameters: 37 °C
quantityMeasured: self-splicing fitness (ln)
Would you mind answering with just the numeric figure?

{"primarySequence": "CACUAGCAAUAUUACGUACG", "observedResult": 0.494}
{"primarySequence": "CGGCAGCAAUAUUACGUUCA", "observedResult": 0.0795}
{"primarySequence": "UCCCAGCAAUAUUACGUAUG", "observedResult": -2.2}
{"primarySequence": "CUAUAGCAAUAUUACGUCCG", "observedResult": 0.0188}
{"primarySequence": "AUAUAGCAAUAUUACGGUCC", "observedResult": -1.44}
{"primarySequence": "CCCGAGCAAUAUUACGUCCU", "observedResult": -2.75}

query: Consider the sequence shown here: `UGAUAGCAAUAUUACGUUGA` What is its recorded self-splicing fitness (ln)?
result: -1.91

query: Also need `ACUUAGCAAUAUUACGUCUC` , thanks.
result: -3.34

====

# experimentalDetails: self-splicing fitness, log relative to wild type (ln ratio); higher = more splicing; Tetrahymena group I intron in knt gene, E. coli kanamycin selection, DiMSum; sequences stand for … in CUCUCU…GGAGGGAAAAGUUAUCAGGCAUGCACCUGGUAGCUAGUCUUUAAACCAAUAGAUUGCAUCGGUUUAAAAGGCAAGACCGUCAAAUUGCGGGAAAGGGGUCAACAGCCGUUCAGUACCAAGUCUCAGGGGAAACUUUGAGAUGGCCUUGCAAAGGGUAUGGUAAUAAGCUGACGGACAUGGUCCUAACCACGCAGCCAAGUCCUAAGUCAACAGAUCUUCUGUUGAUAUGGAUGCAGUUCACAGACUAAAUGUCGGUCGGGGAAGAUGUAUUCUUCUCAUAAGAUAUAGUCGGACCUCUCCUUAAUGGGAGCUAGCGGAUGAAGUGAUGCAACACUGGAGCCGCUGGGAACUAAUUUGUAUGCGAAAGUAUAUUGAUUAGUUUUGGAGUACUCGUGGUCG
# testParameters: 30 °C
Measured self-splicing fitness (ln) of individual entries
Would you mind answering with just the numeric figure?

Consider the worked cases shown below.
{"primarySequence": "ACUUAGCAAUAUUACGUUAU", "self-splicing fitness (ln)": -3.66}
{"primarySequence": "AAUGAGCAAUAUUACGGAUC", "self-splicing fitness (ln)": -2.24}
{"primarySequence": "GGCCAGCAAUAUUACGUAUU", "self-splicing fitness (ln)": -2.14}

query: Consider the sequence shown here: `AUAUAGCAAUAUUACGGGCG` What is its recorded self-splicing fitness (ln)?
result: -1.47

query: Also need `CUCCAGCAAUAUUACGAAUA` , thanks.
result: -3.91
